- system_tested: Gal3S(b1-4)[Fuc(a1-3)]Glc6S
- assay_remarks: glycan array binding signal (z-score within array); higher = stronger binding
- assay_conditions: glycan notation: IUPAC condensed, linker removed
This excerpt belongs to a sample that is enriched for the strongest signals.
readout_kind: glycan array binding signal (z-score)
One number for each entry.

[
  {
    "binder": "Pp2-A2 (Arabidopsis thaliana), Q07098 (protein) MPSNGDLDRQIEQLMECKPLSEADVRTLCDQARAILVEEYNVQPVKCPVTVCGDIHGQFYDLIELFRIGGNAPDTNYLFMGDYVDRGYYSVETVSLLVALKVRYRDRLTILRGNHESRQITQVYGFYDECLRKYGNANVWKYFTDLFDYLPLTALIESQVFCLHGGLSPSLDTLDNIRSLDRIQEVPHEGPMCDLLWSDPDDRCGWGISPRGAGYTFGQDIAAQFNHNNGLSLISRAHQLVMEGFNWCQDKNVVTVFSAPNYCYRCGNMAAILEIGENMEQNFLQFDPAPRQVEPDTTRKTPDYFL",
    "glycan array binding signal (z-score)": 4.36
  }
]

Task: Look up and report measured glycan array binding signal (z-score) for this entry: EUL D1A (Oryza sativa) (protein) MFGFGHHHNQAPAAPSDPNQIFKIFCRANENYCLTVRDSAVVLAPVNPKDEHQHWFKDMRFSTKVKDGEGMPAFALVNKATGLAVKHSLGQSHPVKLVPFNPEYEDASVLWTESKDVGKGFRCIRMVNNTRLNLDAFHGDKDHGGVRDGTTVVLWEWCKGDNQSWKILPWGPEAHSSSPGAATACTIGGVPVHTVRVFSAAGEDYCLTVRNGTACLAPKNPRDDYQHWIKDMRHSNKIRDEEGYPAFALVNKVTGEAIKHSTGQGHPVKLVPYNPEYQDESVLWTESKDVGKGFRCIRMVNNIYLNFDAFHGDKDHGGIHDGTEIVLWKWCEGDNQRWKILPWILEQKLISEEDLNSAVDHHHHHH
Result: 2.51
